B1: NF2 (merlin) isoform 7, human, full length (507 aa, lacks exons 2-3 = isoform-1 residues 39-121; exon-16 C-terminus), P35240-4 (parent)
chain: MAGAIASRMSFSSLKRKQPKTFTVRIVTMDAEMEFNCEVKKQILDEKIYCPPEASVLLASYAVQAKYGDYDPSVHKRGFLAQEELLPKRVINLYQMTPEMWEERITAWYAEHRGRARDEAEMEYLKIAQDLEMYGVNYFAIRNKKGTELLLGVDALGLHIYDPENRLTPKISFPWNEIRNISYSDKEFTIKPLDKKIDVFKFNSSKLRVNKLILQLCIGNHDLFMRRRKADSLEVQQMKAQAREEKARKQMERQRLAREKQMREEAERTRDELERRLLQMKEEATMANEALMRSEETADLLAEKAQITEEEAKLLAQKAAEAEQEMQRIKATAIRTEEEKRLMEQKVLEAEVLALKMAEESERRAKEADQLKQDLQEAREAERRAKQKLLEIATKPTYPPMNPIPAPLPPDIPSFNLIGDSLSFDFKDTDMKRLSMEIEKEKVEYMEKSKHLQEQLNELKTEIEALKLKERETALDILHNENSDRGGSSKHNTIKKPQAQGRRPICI

Variants of: B1
Test: reverse yeast two-hybrid deep mutational scan (rY2H-seq): NF2 isoform 7 mutant library as bait mated with wild-type prey strains; selection on medium lacking adenine for non-interacting pairs; NextSeq paired-end sequencing; enrichment vs …
Conditions: with NF2 C-terminal domain (wild type; homomeric NF2-NF2 interaction), P35240; yeast diploids after mating (RBait_S3 x RPrey_S3), 30 °C, selection for reporter genes on NB agar; human ABL2 co-expressed as the kinase-dead K35M mutant …; HIGHER = WEAKER BINDING (the opposite of display enrichments): higher = stronger loss of interaction: reverse Y2H selects yeast in which bait and prey do NOT interact (growth without adenine), so a …; hits-only table; partner unresolved; scale: rY2H score; numbering: uniprot, sequence starts at 1
Could you label it yes if measured enrichment is 3 or higher, and no otherwise?

>>> df
   mutant_code  group_label
0        E132K          yes
1        K211I           no
2        A302K           no
3         Y70H           no
4        S483K           no
5        E382A           no
6        E323L          yes
